// reported Ki for each item listed
target: Adenosine receptor A1 (Rattus norvegicus); assay: Inhibition of 1 nM [3H]N-6-(phenylisopropyl)adenosine binding to adenosine A1 receptors in rat cortical membranes; format: cell membranes, Membrane
Sequence (P25099 whole entry): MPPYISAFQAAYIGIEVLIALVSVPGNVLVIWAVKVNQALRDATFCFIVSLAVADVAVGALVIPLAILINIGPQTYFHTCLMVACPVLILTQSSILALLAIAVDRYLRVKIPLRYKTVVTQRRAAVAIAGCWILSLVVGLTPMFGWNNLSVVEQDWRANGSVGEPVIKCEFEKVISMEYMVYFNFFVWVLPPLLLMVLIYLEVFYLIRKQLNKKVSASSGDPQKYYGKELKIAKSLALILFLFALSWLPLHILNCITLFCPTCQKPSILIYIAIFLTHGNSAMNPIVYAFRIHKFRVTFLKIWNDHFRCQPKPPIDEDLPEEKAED
MEASUREMENT_TYPE: Ki (nM)

[
  {
    "COMPOUND": "CCCn1c(=O)c2nc(-c3ccc(OCC(=O)NCCNC(=O)C(N)CCCCNC(=O)OCc4ccccc4)cc3)[nH]c2n(CCC)c1=O.O=C(O)C(F)(F)F (stereo not drawn)",
    "MEASUREMENT_TYPE": "Ki",
    "REPORTED": 6.4
  },
  {
    "COMPOUND": "CCCn1c(=O)c2nc(-c3ccc(OCC(=O)NCCNC(=O)C(N)CCCCNC(=O)OCc4ccccc4)cc3)[nH]c2n(CCC)c1=S.O=C(O)C(F)(F)F (stereo not drawn)",
    "MEASUREMENT_TYPE": "Ki",
    "REPORTED": 6.8
  },
  {
    "COMPOUND": "Cn1c(=O)c2nc(C3CCCC3)[nH]c2n(C)c1=S",
    "MEASUREMENT_TYPE": "Ki",
    "REPORTED": 10.2
  }
]

====

biological target: Adenosine receptors; A1 & A2 (Rattus norvegicus) (UniProt P29276+P25099+P30543); test: Inhibitory selectivity for A2 receptor in rat striatal membranes and A1 receptor in rat cortical membranes; assay type: cell membranes; conditions: Striatum, Membrane

[
  {
    "SMILES_STR": "CCCn1c(=O)c2nc(-c3ccc(OCC(=O)NCCNC(=O)CCCCCCC(=O)NCc4cccs4)cc3)[nH]c2n(CCC)c1=O",
    "Ratio": 85
  },
  {
    "SMILES_STR": "Cn1c(=S)c2nc(C3CCCC3)[nH]c2n(C)c1=S",
    "Ratio": 285
  },
  {
    "SMILES_STR": "CCCn1c(=O)c2nc(-c3ccc(OCC(=O)NCCNC(=O)Cc4ccc(I)s4)cc3)[nH]c2n(CCC)c1=O",
    "Ratio": 10.3
  },
  {
    "SMILES_STR": "Cn1c(=S)c2nc(C3CCCC3)[nH]c2n(C)c1=O",
    "Ratio": 44.4
  }
]

====

// reported Ratio for each item listed
biological target: Adenosine receptors; A1 & A2 (Rattus norvegicus) (UniProt P29276+P25099+P30543); test: Inhibitory selectivity for A2 receptor in rat striatal membranes and A1 receptor in rat cortical membranes; format: cell membranes; conditions: Striatum, Membrane

[
  {
    "COMPOUND": "CCCn1c(=S)c2nc(C3CCCC3)[nH]c2n(CCC)c1=S",
    "Ratio": 572
  },
  {
    "COMPOUND": "CCCn1c(=O)c2nc(-c3ccc(OCC(=O)NCCNC(=O)C(N)CCCCNC(=O)OCc4ccccc4)cc3)[nH]c2n(CCC)c1=S.O=C(O)C(F)(F)F (centres undefined)",
    "Ratio": 36
  },
  {
    "COMPOUND": "Cn1c(=O)c2nc(C3CCCC3)[nH]c2n(C)c1=S",
    "Ratio": 136
  },
  {
    "COMPOUND": "CCCn1c(=O)c2nc(-c3ccc(OCC(=O)NCCNC(=O)C(N)CCCCNC(=O)OCc4ccccc4)cc3)[nH]c2n(CCC)c1=O.O=C(O)C(F)(F)F (centres undefined)",
    "Ratio": 30
  }
]
